Listed next: entries and their corresponding normalised response.
Test system: MDA-MB-453
ASSAY REMARKS: normalised response (% of control), CellTiter-Glo; higher = more viable cells (100 = DMSO, 0 = benzethonium chloride kill control)
SETTINGS: incubation time: 72 h
Answer with a number only, understood to be in %.

Field: example entries. Status: answers known.
CNCc1ccc(-c2[nH]c3cc(F)cc4c3c2CCNC4=O)cc1 [Rucaparib] (1000 nM) :: 100
Clc1ccc(Nc2nnc(Cc3ccncc3)c3ccccc23)cc1 [Vatalanib] (1 nM) :: 103
CCC1=C[C@@H]2CN(C1)Cc1c([nH]c3ccccc13)[C@@](C(=O)OC)(c1cc3c(cc1OC)N(C)[C@H]1[C@@](O)(C(=O)OC)[C@H](OC(C)=O)[C@]4(CC)C=CCN5CC[C@]31[C@@H]54)C2 [Vinorelbine] (1 nM) :: 102
O=C(O)c1ccc(-c2c[nH]c3ncc(-c4ccccc4)cc23)cc1C1CCCC1 (10 nM) :: 91.8

Request: Tell me reported normalised response for Cn1c(Nc2ccc(C(F)(F)F)cc2)nc2cc(Oc3ccnc(-c4ncc(C(F)(F)F)[nH]4)c3)ccc21 [RAF265] (0.1 nM) , tested with MDA-MB-453.
Result: 118

Request: Tell me reported normalised response for NC(=O)Nc1cc(-c2cccc(F)c2)sc1C(=O)N[C@H]1CCCNC1 [AZD7762] (1 nM) , tested with MDA-MB-453.
Result: 94.1

Request: Tell me reported normalised response for Cc1ccc(C(=O)Nc2ccc(CN3CCN(C)CC3)c(C(F)(F)F)c2)cc1C#Cc1cnc2cccnn12 [Ponatinib] (1 nM) , tested with MDA-MB-453.
Result: 98.2

====

Tested on: BT-474
SETTINGS: 72 h
OBSERVABLE: EC50, CellTiter-Glo (nM)
Answer with a number only, understood to be in nM.

Oc1nc(-c2ccc(C(F)(F)F)cc2)nc2c1CSCC2 :: 350
NC(=O)Nc1cc(-c2cccc(F)c2)sc1C(=O)N[C@H]1CCCNC1 :: 233
O=C(CCCCCCC(=O)Nc1ccc([C@H]2O[C@@H](CSc3nc(-c4ccccc4)c(-c4ccccc4)o3)C[C@@H](c3ccc(CO)cc3)O2)cc1)NO :: 3650
COc1cc([C@@H]2c3cc4c(cc3[C@@H](O[C@@H]3O[C@@H]5CO[C@@H](C)O[C@H]5[C@H](O)[C@H]3O)[C@H]3COC(=O)[C@H]23)OCO4)cc(OC)c1O [Etoposide] :: 2810

// moving on: another record for EC50, CellTiter-Glo
Request: # EC50, CellTiter-Glo lookup, item CN[C@@H]1C[C@H]2O[C@@](C)([C@@H]1OC)n1c3ccccc3c3c4c(c5c6ccccc6n2c5c31)C(=O)N[C@H]4O
Result: 43.4

====

Tested on: MFM-223
ASSAY REMARKS: normalised viability (% of control), CellTiter-Blue; higher = more viable cells (about 100 = DMSO control)
SETTINGS: 100 nM; incubation time: 72 h
Listed next: entries and their corresponding normalised viability.
Answer with a number only, understood to be in %.

CC1(C)NC(=O)N(c2ccc([N+](=O)[O-])c(C(F)(F)F)c2)C1=O [Nilutamide] :: 92.4
Oc1nc(-c2ccc(C(F)(F)F)cc2)nc2c1CSCC2 :: 96.5

// moving on: another record for normalised viability
Request: # normalised viability lookup, item CN(C)/N=N/c1[nH]cnc1C(N)=O
Result: 88.8
